# ASSAYED TARGET: L-lactate dehydrogenase (Plasmodium falciparum (isolate CDC / Honduras))
# TEST METHOD NOTES: PfLDH activity inhibition – cell lysate, 3D7 strain, counter-screen for P. falciparum growth inhibition project (AID 2304);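 further: 0% = vehicle and 100% = reference inhibitor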
# MEASUREMENT CONTEXT: P. falciparum 3D7 crude extract, LDH APAD/NBT absorbance; at 2 µM; stronger effect = higher value
MEASURED METRIC: inhibition (%)
A number alone suffices; assume %.

Task item: May I ask what inhibition has been recorded for O=C(Nc1ccc(SC(F)(F)F)cc1)Nc1ccc(Cl)c(Cl)c1 ?
Reply: 4

====

# TEST METHOD NOTES: inhibition of 3D7 malaria parasite growth – strain 3D7 (AID 2306);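 further: 0% = DMSO wells and 100% = chloroquine plus artemisinin control wells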
# MEASUREMENT CONTEXT: P. falciparum 3D7 erythrocytic growth, LDH absorbance, 72 h; at 2 µM; stronger effect = higher value
MEASURED METRIC: growth inhibition (%)
A number alone suffices; assume %.

// known answers, use as guide
{"COMPOUND": "O=C(NCc1ccccn1)C(c1cc2ccccc2o1)N1CCN(C(c2ccccc2)c2ccccc2)CC1 (centres undefined)", "TEST VALUE": 95}
{"COMPOUND": "COc1ccc2cc(-c3nc(-c4c(Cl)cccc4Cl)[nH]c3-c3ccnc(NCCC4CCCN4C)c3)ccc2c1 (centres undefined)", "TEST VALUE": 100}
{"COMPOUND": "Cc1cc(N[C@@H](Cc2ccccc2)C(=O)NCCOc2ccccc2)nc(NCCc2ccc(F)cc2)n1", "TEST VALUE": 99}

--- query ---
Task item: May I ask what growth inhibition has been recorded for Cc1cc(C)c(NC(=O)NC2CCN(CCCCCNC(=O)/C=C/c3ccc(Cl)c(Cl)c3)C2)c(C)c1 (centres undefined) ?
Reply: 99

====

# TEST METHOD NOTES: antimalarial activity against Dd2 strain (AID 2302);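 further: 0% = DMSO untreated growth and 100% = chloroquine plus artemisinin killed control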
# MEASUREMENT CONTEXT: P. falciparum Dd2 in RBCs, LDH growth readout, 72 h; at 2 µM; stronger effect = higher value
MEASURED METRIC: growth inhibition (%)
A number alone suffices; assume %.

// known answers, use as guide
{"MOLECULE": "O=C(Nc1ccc(OC2CCN(Cc3ccccc3)CC2)c(Cl)c1)c1ccco1", "MEASURED METRIC": "growth inhibition", "TEST VALUE": 96}
{"MOLECULE": "Nc1ncnc2cc(-c3cccc(NC(=O)Nc4ccccc4)c3)sc12", "MEASURED METRIC": "growth inhibition", "TEST VALUE": 33}
{"MOLECULE": "COc1ccc2nccc([C@@H](O)CN3CCC(NC(=O)/C=C/c4ccc5[nH]c(=O)ccc5c4)CC3)c2c1", "MEASURED METRIC": "growth inhibition", "TEST VALUE": 83}
{"MOLECULE": "Cc1ccc(NC(=O)c2ccc(CN3CCCN(Cc4cccc(O)c4)CC3)cc2)cc1", "MEASURED METRIC": "growth inhibition", "TEST VALUE": 31}

Task item: May I ask what growth inhibition has been recorded for CCc1nc2ccc(C(=O)OC)nc2n1Cc1ccc2oc(-c3ccccc3N)c(Br)c2c1 ?
Reply: 75

Task item: May I ask what growth inhibition has been recorded for c1ccc2nc(NCCCCCCCCNc3ccc4ccccc4n3)ccc2c1 ?
Reply: 37

Task item: May I ask what growth inhibition has been recorded for CCN1[C@@H](c2ccc(Cl)cc2)[C@@H](CNCc2ccccc2O)C[C@@]1(C)CO ?
Reply: 99

Task item: May I ask what growth inhibition has been recorded for COc1cc2nc(N3CCC(CNC(=O)c4cc5ccccc5s4)CC3)nc(N)c2cc1OC ?
Reply: 101

Task item: May I ask what growth inhibition has been recorded for CCSc1nc2sc3c(c2c(=O)n1-c1ccccc1)CCN(C)C3 ?
Reply: 71

Task item: May I ask what growth inhibition has been recorded for CCOC(=O)C1=C(C)N=c2sc(=Cc3ccccc3O)c(=O)n2C1c1ccc(OC)c2ccccc12 (stereo not given) ?
Reply: 38

Task item: May I ask what growth inhibition has been recorded for COc1ccc(-n2c(=O)c3c(n4c(SC(C)C)nnc24)-c2ccccc2CC32CCCCC2)cc1 ?
Reply: 15

Task item: May I ask what growth inhibition has been recorded for Clc1ccc(Sc2cncnc2N2CCOCC2)cc1 ?
Reply: -6

Task item: May I ask what growth inhibition has been recorded for CCCCOc1cc(CNCCCCCCNCc2cc(OCCCC)cc3ccccc23)c2ccccc2c1 ?
Reply: 92

Task item: May I ask what growth inhibition has been recorded for CC(C)(C)Oc1ccc(C[C@@H]2NC3(C(=O)N(Cc4ccc(Cl)c(Cl)c4)c4ccccc43)C3C(=O)N(c4ccc(Br)cc4)C(=O)C32)cc1 (stereo not given in full) ?
Reply: 25

Task item: May I ask what growth inhibition has been recorded for NC(N)=NN=Cc1c2ccccc2c(Cl)c2c(Cl)cccc12 ?
Reply: 72

Task item: May I ask what growth inhibition has been recorded for COc1cc2nc(SCCCC#N)n(C3CCCCCC3)c(=N)c2cc1OC ?
Reply: 9

Task item: May I ask what growth inhibition has been recorded for CC(=O)Nc1ccc(CN2CCC(CNC(=O)c3cc(-c4cccc(C(F)(F)F)c4)cs3)C2)cc1 (stereo not given) ?
Reply: 3

Task item: May I ask what growth inhibition has been recorded for CN1CCN(CCCN(Cc2ccc(-c3ccc(CNC4CCCC4)cc3)cc2)C(=O)CCC2CCCC2)CC1 ?
Reply: 96

Task item: May I ask what growth inhibition has been recorded for O=C1CCCC1Sc1nc2ccccc2c(=O)n1-c1ccc(Cl)c(Cl)c1 (stereo not given) ?
Reply: 42

Task item: May I ask what growth inhibition has been recorded for Cc1[nH]cnc1Cc1ccc2c(c1O)c1ccccc1n2C ?
Reply: 16

Task item: May I ask what growth inhibition has been recorded for COc1c(Br)cc(Br)cc1C(C)=O ?
Reply: -2

Task item: May I ask what growth inhibition has been recorded for Cc1cc(N2CCN(C(=O)OC(C)(C)C)CC2)ccc1N ?
Reply: 38

Task item: May I ask what growth inhibition has been recorded for O=C(Nc1ccc(Cl)cc1)c1cccc(S(=O)(=O)NC2CCN(CC3CCCCC3)CC2)c1 ?
Reply: 11

Task item: May I ask what growth inhibition has been recorded for COc1cccc(CN2CCCN(Cc3cccc(NC(=O)c4ccc(-c5ccccc5)cc4)c3)CC2)c1 ?
Reply: 8

Task item: May I ask what growth inhibition has been recorded for CC(C)c1ccc(-c2nc3ncc(Cl)cc3[nH]2)cc1 ?
Reply: 77

Task item: May I ask what growth inhibition has been recorded for COc1cc(OC)c(NC(=O)C2c3ccccc3C(=O)N(CC(C)C)C2c2cccs2)cc1Cl (stereo not given) ?
Reply: 100
